# Test system: Mus musculus
# Assay comment: Neurotoxicity in ip dosed albino CF1 mouse assessed as minimum dose required to cause motor impairment after 4 hrs by rotarod test
# Format: toxicity, organism-based
# Run conditions: in vivo
MTC values, listed per item

{"Compound": "O=C1NC(=O)C(c2ccccc2)(c2ccccc2)N1", "System tested": "Mus musculus", "MTC": "100 mg/kg"}
{"Compound": "CC1CC(=O)N(CC(=O)N2CCN(c3ccc(Cl)cc3)CC2)C1=O (stereo not given)", "System tested": "Mus musculus", "MTC": "300 mg/kg"}
{"Compound": "O=C(CN1C(=O)CCC1=O)N1CCN(c2ccc(Cl)cc2)CC1", "System tested": "Mus musculus", "MTC": "300 mg/kg"}
{"Compound": "CC1CC(=O)N(CC(=O)N2CCN(c3cccc(C(F)(F)F)c3)CC2)C1=O (stereo not given)", "System tested": "Mus musculus", "MTC": "300 mg/kg"}

Input: What value of MTC has been reported for the following compound? O=C(CN1C(=O)CCC1=O)N1CCN(c2cccc(C(F)(F)F)c2)CC1
Output: 300 mg/kg

---

# Test system: Rattus norvegicus
# Assay comment: Anticonvulsant activity in Sprague-Dawley rat assessed as protection against maximal electroshock-induced seizures at 30 mg/kg, po after 2 hrs
# Assay type: functional
Calls of active or inactive are those of the source. The calls are words filed in the database; no cut-off is given here.
Measurement type: Activity

{"Molecule": "CC1(C)CC(=O)N(CC(=O)N2CCN(c3ccc(F)cc3)CC2)C1=O", "Activity": "inactive"}
{"Molecule": "CC1CC(=O)N(CC(=O)N2CCN(c3ccccc3Cl)CC2)C1=O (configuration not stated)", "Activity": "inactive"}
{"Molecule": "O=C(CN1C(=O)CCC1=O)N1CCN(c2ccccc2Cl)CC1", "Activity": "inactive"}
{"Molecule": "O=C(CN1C(=O)CCC1=O)N1CCN(c2cccc(C(F)(F)F)c2)CC1", "Activity": "75%"}
{"Molecule": "O=C1NC(=O)C(c2ccccc2)(c2ccccc2)N1", "Activity": "75%"}

Input: Give recorded Activity with Rattus norvegicus for the following molecule: CC1CC(=O)N(CC(=O)N2CCN(c3ccc(Cl)cc3)CC2)C1=O (configuration not stated)
Output: 75%

Input: Note, next up: CC1(C)CC(=O)N(CC(=O)N2CCN(c3cccc(C(F)(F)F)c3)CC2)C1=O
Output: inactive

---

# Tested on: Mus musculus
# Assay comment: Anticonvulsant activity in albino CF1 mouse assessed as protection against electrically-induced seizure at 100 mg/kg, ip after 1 hr by 6Hz psychomotor seizure test
# Type: functional
# Run conditions: route intraperitoneal
Measurement type: Activity
Phrase the answer as number then unit, nothing more needed.

Here are 3 compounds together with their reported answers.
{"Compound": "CC1(C)CC(=O)N(CC(=O)N2CCN(c3ccc(Cl)cc3)CC2)C1=O", "Activity": "100%"}
{"Compound": "O=C(CN1C(=O)CCC1=O)N1CCN(c2cccc(C(F)(F)F)c2)CC1", "Activity": "75%"}
{"Compound": "CC1(C)CC(=O)N(CC(=O)N2CCN(c3ccc(F)cc3)CC2)C1=O", "Activity": "75%"}

Input: Give recorded Activity with Mus musculus for the following compound: CC1CC(=O)N(CC(=O)N2CCN(c3ccc(F)cc3)CC2)C1=O (configuration not stated)
Output: 75%

Input: Note, next up: CC1(C)CC(=O)N(CC(=O)N2CCN(c3cccc(C(F)(F)F)c3)CC2)C1=O
Output: 75%

Input: Note, next up: CC1CC(=O)N(CC(=O)N2CCN(c3ccc(Cl)cc3)CC2)C1=O (configuration not stated)
Output: 75%

Input: Note, next up: CC1CC(=O)N(CC(=O)N2CCN(c3cccc(C(F)(F)F)c3)CC2)C1=O (configuration not stated)
Output: 100%
